study target: T1, TNFR1 (Homo sapiens, UniProt P19438)
T1 chain: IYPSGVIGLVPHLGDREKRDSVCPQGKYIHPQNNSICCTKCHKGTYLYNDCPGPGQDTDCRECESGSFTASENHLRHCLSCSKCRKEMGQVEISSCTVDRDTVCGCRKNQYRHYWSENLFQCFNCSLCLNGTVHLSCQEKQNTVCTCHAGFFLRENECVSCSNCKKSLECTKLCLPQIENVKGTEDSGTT
procedure summary: yeast display SC50
metric: apparent Kd (screen) (nM)

E78D (designed binder) SMEEEVEKAAKEYEKKKKEAIEKHLEKLKAKDKEAAERFLKELEEAAKEYAKDEAKTMSEEEAKRRAKKYKEKVLLSDLSEEEQKEIKEAEEKLVRTILKYVEEAAK; 1.86

I. E60R (designed binder) SMEEEVEKAAKEYEKKKKEAIEKHLEKLKAKDKEAAERFLKELEEAAKEYAKDEAKTMSREEAKRRAKKYKEKVLLSELSEEEQKEIKEAEEKLVRTILKYVEEAAK
II. L43Y (designed binder) SMEEEVEKAAKEYEKKKKEAIEKHLEKLKAKDKEAAERFLKEYEEAAKEYAKDEAKTMSEEEAKRRAKKYKEKVLLSELSEEEQKEIKEAEEKLVRTILKYVEEAAK
stdin: Param metric = apparent Kd (screen); output whichever of I , II has the minimum value. Could you answer with the label of the item you picked?
stdout: I
(I: 1.16 nM, II: 5.84 nM)
